Test system: MS2 coat protein
Test Details: apparent KD of MS2 coat protein; designed switch direction (-1 OFF switch, 1 ON switch): -1; higher = weaker reporter binding
Test Parameters: Eterna round: R95; input ligand: none
The following sequences are shown together with reported apparent KD of MS2 coat protein values.
The response must be a number in µM with no trailing unit.

Reference set (2 entries):
Challenge: Can you share its apparent KD of MS2 coat protein? I mean this sequence: UACGGGUCAGGAUAUGCGAGAGAUUGGGAAAUAGGAAGGUAGCAGAAGGGACAUGAGGAUCACCCAUGUGAAGC [JR_Exclu4_Sub097] (puzzle: Exclusion 4)
Response given: 0.0288

Challenge: Reported apparent KD of MS2 coat protein for GAUUAUGCGAGCUUUAGGGACAUGAGGAUCACCCAUGUUCGUCUUAUUGAUCUAGGUACACUAACAUACCUAAAUCU [JMF 17] (puzzle: Sensor v3, turn-off variant 1) : what is it?
Response given: 0.0231

***
Challenge: For the sequence GCGAAAGCAAGCAAGUGAAACAUGAGGAUCACCCAUGUACUCAUUUGCUCGUCUUGUAAGCUAUGCGAAAGCAUAGC [Mat - Sensor v3 - turn-off var 1 - Eli Mod - D51] (puzzle: Sensor v3, turn-off variant 1) , what apparent KD of MS2 coat protein is on record?
Response given: 0.00972

Challenge: Recorded apparent KD of MS2 coat protein for GAUUAUGCGAGCUUUAGGGACAUGAGGAUCACCCAUGUUCGUCUUAUUAGUCUGGGUGCGCUAACAUACCUAAAUCU [JMF 53] (puzzle: Sensor v3, turn-off variant 1) , please?
Response given: 0.175

Challenge: Recorded apparent KD of MS2 coat protein for GAAUACAAGCAAAGAUCCUACAUGAGGAUCACCCAUGUGCUCGUCUUGUAAAGUACUAUCACGAAAGUGAUAGUACA [Mat - Sensor v3 - turn-off var 1 - Eli Mod - D78] (puzzle: Sensor v3, turn-off variant 1) , please?
Response given: 0.0601

* * *

Test system: K4 kissing-loop RNA reporter;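 note: bound reporter read as fluorescence of individual clusters on recovered sequencing chips by microscopy, with normalized cluster intensities fitted with a binding model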
Test Details: apparent KD of K4 kissing-loop reporter; higher = weaker reporter binding
Test Parameters: Eterna round: R107; input ligand: arginine 13.2 mM
Please note: yes (1) applies when apparent KD of K4 kissing-loop reporter is 300 nM or greater, and no (0) applies otherwise.

Past entries and their recorded results:
Challenge: For this sequence, is measured apparent KD of K4 kissing-loop reporter 300 nM or higher? GUUGUAUACUGAAGGAGCGAGUAGUGGAAACAUAAACUCAUUGCGAGUGAUGUUCGCGGUACUCAGGUAGGUCGCGGUAAUCGUA [Exclusion Arginine B Gf 11]
Response given: yes (1)

Challenge: Hello, I need to know if AUUCUGUUUUUGAUGUUUAUUGUAUAAUGGCAGGAUAUCGUAGAAGCGAGAAGGGCUUUUAUGCGUUAUGAGUGAUGUUUGUAGG [eyeefvmullin] has measured apparent KD of K4 kissing-loop reporter not below 300 nM. Thanks!
Response given: no (0)

Challenge: Has UGAUACCAGACGGCCGCCACUCCCGUAAGUCAAAGACUUACCAAGAGUAUCGUCCAGUGAUGUUGGAGGACCGGGUCUGGUAUCU [FiskerMod 9 - Jieux - Exclusion - Tryptophan B] a recorded apparent KD of K4 kissing-loop reporter greater than or equal to 300 nM?
Response given: yes (1)

For the next question, use this sequence.
Challenge: Reported apparent KD of K4 kissing-loop reporter at or above 300 nM? CUGAGCCUGACGAAAGUCAGGCUCUGCGAGCGAGGACCGGUACGGCCGCCACUCGGUGCAGUGAUGUUGCAUGGCCGCAAGGCCG [#2 Exclusion - Tryptophan A Attempt #18 (HarryS)]
Response given: no (0)
